Biological target: CypB (Homo sapiens, UniProt P23284)
Sequence (P23284 34-216, species assumed): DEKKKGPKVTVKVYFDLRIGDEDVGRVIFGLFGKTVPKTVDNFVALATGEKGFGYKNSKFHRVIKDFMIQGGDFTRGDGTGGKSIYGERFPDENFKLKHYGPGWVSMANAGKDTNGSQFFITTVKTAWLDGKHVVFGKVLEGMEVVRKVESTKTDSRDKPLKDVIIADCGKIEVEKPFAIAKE
Property label: Kd (nM)

molecule="COc1cc(C(C(=O)NC2CCCCC2)N(C(=O)Cc2c[nH]c3ccccc23)c2ccc(C(C)C)cc2)cc(OC)c1OC (stereo not shown)" reading=2100

* * *

Experiment: in vitro
Format: cell-based, hepatitis C virus
Conditions: genotype 1b Con1b; FIG. 11a
Property label: CC50 (µM)

compound="COc1cc(C(C(=O)NC2CCCCC2)N(C(=O)Cc2c[nH]c3ccccc23)c2ccc(C(C)C)cc2)cc(OC)c1OC (stereo not shown)" measurement_units=µM reading=12.4

* * *

System: genotype 1b (Con1b) replication cells
Test: microbe, parasite or virus in culture
Format: cell-based, hepatitis C virus
Conditions: Hepatitis C virus
pEC50: −log10 of the molar value.
Property label: pEC50

compound="COc1cc(C(C(=O)NC2CCCCC2)N(C(=O)Cc2c[nH]c3ccccc23)c2ccc(C(C)C)cc2)cc(OC)c1OC (stereo not shown) [WJCPA-126]" property_label=pEC50 reading=6.14
